Source of measurements: the supplement of paper PMC10567573

B1: PLK2 (parent)
chain: MELLRTITYQPAASTKMCEQALGK

- Variants of: B1
- protocol: protein stability index of a GFP-peptide fusion (GPS, HEK-293T) (PSI 1-6); higher = more stable;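 also: lentivirally expressed fusions sorted by FACS into six bins by GFP to DsRed ratio, PSI derived from sequencing read proportions per bin multiplied by bin number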
- experimental_setup: c terminus: a fixed tail appended
recorded_metric: protein stability index
Answer with a number only.

Recorded protein stability index for "T15V" , please?
1.54

Query (variant): "S14G" ; field requested: protein stability index
1.9

Please report the recorded protein stability index for "C18V" .
2.26

Bench note: what protein stability index did "M17C" show?
2.07

// lookup protein stability index for "E19N"
2.28

Look up protein stability index for this variant: "M17G"
1.53

Give its protein stability index value. Item: "I7H"
2.8

What value of protein stability index has been reported for the following variant? "P11M"
2.15

Form field: reported protein stability index of "Y9S"
3.53

Dear colleague, I am looking for the recorded protein stability index of the following variant: "K16D"
2.38

Query: protein stability index; subject: "M17P"
2.04

Param item = "A13Y" ; retrieve measured protein stability index.
2.42

protein stability index for "C18S" ?
2.81

Fill in the blank: the reported protein stability index of "L3I" is ____.
2.63

What value of measured protein stability index is listed for "K24N" ?
2.59

Given the variant "Y9Q" , what is its reported protein stability index?
2.01

Return reported protein stability index; argument: "C18G"
3

Would you kindly share the measured protein stability index for "L3D" ?
2.46

Look up protein stability index for this variant: "G23I"
1.97

Return reported protein stability index; argument: "Q20D"
1.95

Entry "Y9H" : reported protein stability index = ?
2.1

I'd like to know its protein stability index. The variant in question is "T6Q"
1.93
